target-entity: HSV-1 DNA Polymerase (Human herpesvirus 1)
Sequence (P04293 whole entry): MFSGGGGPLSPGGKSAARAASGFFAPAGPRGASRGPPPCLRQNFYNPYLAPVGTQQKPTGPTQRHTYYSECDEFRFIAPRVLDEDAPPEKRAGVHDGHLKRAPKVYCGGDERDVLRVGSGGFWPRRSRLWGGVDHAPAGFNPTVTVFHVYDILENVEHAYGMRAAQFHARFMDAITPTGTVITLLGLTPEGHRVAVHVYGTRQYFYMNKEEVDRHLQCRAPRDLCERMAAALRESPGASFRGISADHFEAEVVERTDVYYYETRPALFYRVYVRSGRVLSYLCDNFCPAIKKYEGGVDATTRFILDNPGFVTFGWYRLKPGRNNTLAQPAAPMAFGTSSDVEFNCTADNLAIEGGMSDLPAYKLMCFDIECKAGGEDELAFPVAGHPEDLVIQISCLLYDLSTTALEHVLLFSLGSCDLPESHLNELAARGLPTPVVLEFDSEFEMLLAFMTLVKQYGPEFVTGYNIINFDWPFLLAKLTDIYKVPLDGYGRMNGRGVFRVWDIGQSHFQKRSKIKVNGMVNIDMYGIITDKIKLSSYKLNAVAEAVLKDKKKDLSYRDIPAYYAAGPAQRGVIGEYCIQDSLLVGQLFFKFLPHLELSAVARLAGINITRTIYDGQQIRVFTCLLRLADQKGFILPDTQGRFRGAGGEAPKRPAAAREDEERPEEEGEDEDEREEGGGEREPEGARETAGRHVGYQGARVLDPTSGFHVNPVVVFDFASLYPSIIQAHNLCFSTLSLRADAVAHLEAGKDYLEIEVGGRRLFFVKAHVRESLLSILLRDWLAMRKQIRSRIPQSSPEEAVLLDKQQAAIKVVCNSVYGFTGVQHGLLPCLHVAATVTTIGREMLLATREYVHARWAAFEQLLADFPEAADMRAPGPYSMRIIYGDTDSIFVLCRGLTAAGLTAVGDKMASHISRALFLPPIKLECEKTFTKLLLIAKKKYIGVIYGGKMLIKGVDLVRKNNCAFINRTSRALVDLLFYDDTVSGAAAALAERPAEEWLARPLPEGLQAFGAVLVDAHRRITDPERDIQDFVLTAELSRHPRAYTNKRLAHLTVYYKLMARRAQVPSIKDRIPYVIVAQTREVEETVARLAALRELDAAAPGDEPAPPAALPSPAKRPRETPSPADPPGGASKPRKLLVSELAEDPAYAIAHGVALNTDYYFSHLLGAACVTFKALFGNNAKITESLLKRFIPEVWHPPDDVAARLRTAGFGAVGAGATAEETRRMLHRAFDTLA
procedure-details: Kinetic analysis / inhibition of HSV-1 DNA polymerase
Assay type: biochemical
measured-endpoint: Ki (nM)

COCc1cn([C@H]2C[C@H](O)[C@@H](COP(=O)(O)OP(=O)(O)OP(=O)(O)O)O2)c(=O)nc1N [MMdCTP] ... 380

* * *

procedure-details: Survival and viability of Vero cells
run-conditions: monkey, vero cells
measured-endpoint: viability at 100 µM (%)

Nc1nc2c(ncn2[C@H]2C[C@H](O)[C@@H](CO)O2)c(=O)[nH]1 ... 100

* * *

procedure-details: Cytotoxicity (MTC), HEP-2 cells
Type: cell-based
run-conditions: human, read-out: minimum cytotoxic concentration (MTC)
Experimental: Minimum cytotoxic concentrations (MTC) for MMdCyd was greater than 1,000 μg/ml for RK-13, HEP-2 and Vero cells. ^c MTC = Minimum toxic concentration concentration required to produce definite evidence of microscopic toxicity on confluent monolayer
measured-endpoint: MCC

COCc1cn([C@H]2C[C@H](O)[C@@H](CO)O2)c(=O)nc1N [MMdCyd, 5-methoxymethyl-2'-deoxycytidine] ... > 1000 µg/mL

* * *

procedure-details: Cytotoxicity (MTC), RK-13 cells
Format: cell-based
run-conditions: rabbit, read-out: minimum cytotoxic concentration (MTC)
measured-endpoint: MCC

COCc1cn([C@H]2C[C@H](O)[C@@H](CO)O2)c(=O)nc1N ... > 1000 µg/mL

* * *

Tested on: Herpes simplex virus type 2 (HSV-2)
procedure-details: Antiviral activity against HSV-2, viral plaque reduction (ED50)
Assay type: cell-based
run-conditions: HSV-2 333, Vero, 50 PFU
measured-endpoint: EC50

COCc1cn([C@H]2C[C@H](O)[C@@H](CO)O2)c(=O)nc1N [MMdCyd, 5-methoxymethyl-2'-deoxycytidine] ... 175 µM

* * *

procedure-details: Survival and viability of Vero cells
run-conditions: monkey, vero cells
measured-endpoint: viability at 50 µM

Nc1nc2c(ncn2[C@H]2C[C@H](O)[C@@H](CO)O2)c(=O)[nH]1 [dGuo, 2'-deoxyguanosine] ... 100%

* * *

procedure-details: in vitro
run-conditions: monkey, vero cells
measured-endpoint: viability at 1000 µM (%)

O=C1NC(O)CCN1[C@H]1C[C@H](O)[C@@H](CO)O1 (stereo partly shown) [H4 dUrd, tetrahydro-2'-deoxyuridine] ... 100

* * *

procedure-details: Inhibition of proliferation (MTC), CEM cells
Format: cell-based
run-conditions: human, highest concentration tested
measured-endpoint: MCC

COCc1cn([C@H]2C[C@H](O)[C@@H](CO)O2)c(=O)nc1N ... > 400 µg/mL

* * *

procedure-details: Inhibition of proliferation (MTC), H-9 cells
Assay type: cell-based
run-conditions: human, highest concentration tested
measured-endpoint: MCC

COCc1cn([C@H]2C[C@H](O)[C@@H](CO)O2)c(=O)nc1N [MMdCyd, 5-methoxymethyl-2'-deoxycytidine] ... > 400 µg/mL

* * *

procedure-details: Survival and viability of Vero cells
run-conditions: monkey, vero cells
measured-endpoint: viability at 25 µM (%)

Nc1nc2c(ncn2[C@H]2C[C@H](O)[C@@H](CO)O2)c(=O)[nH]1 [dGuo, 2'-deoxyguanosine] ... 100

* * *

procedure-details: Inhibition of proliferation (MTC), Raji cells
Type: cell-based
run-conditions: human, highest concentration tested
measured-endpoint: MCC

COCc1cn([C@H]2C[C@H](O)[C@@H](CO)O2)c(=O)nc1N ... > 400 µg/mL

Where these numbers come from: patent US4990499A
